Numbers sourced from a protein production outcome set (Wang et al. 2014).

# Procedure Details: label from the status in PepcDB records
Measurement Type: protein production

ADDFAMEMGLACVVCRQMTVASGNQLVECQECHNLYHQDCHKPQVTDKEVNXPSRGVVLCPGTRQMKRMAQKNQK :: not failed
MGNNSESKGSASDSKGAETFTYKAENGNVKIPKHPKRVVVMADGYYGYFKTLGINVVGAPENVFKNPYYKGKTNGVENIGDGTSVEKVIDLNPDLIIVWTTQGADIKKLEKIAPTVAVKYDKLDNIEQLKEFAKMTGTEDKAEKWLAKWDKKVAAAKTKIKKAVGDKTISIMQTNGKDIYVFGKDFGRGGSIIYKDLGLQATKLTKEKAIDQGPGYTSISLEKLPDFAGDYIFAGPWQSGGDDGGVFESSIWKNLNAVKNGHVYKMDPIGFYFTDPISLEGQLEFITESLTKLEHHHHHH :: not failed
MKLLLLLIIALEISFTTIVSLNVALIILALIYLLGHRTRLRTLGWLLLIPLLPAIGLWSTQYINGSGDKTLMAWVLFTRIYAFVFTGATFTLTTDVLQLTDSLEQNWHLPAKFAYGVLAAYNLVPRIQHEVQVIRAAGLMRGQVLSFWSPQLYFKAILVSINWSQNLARAMRSHGFVEDAPRTHYRQIPLTKLDWTIVISGVLLLQVGAFVIPWR :: failed
MKKITIISGHPNHESSISNKAILEYLESNVMESQLNIRKLEDLNTHFEFNVIQEQEALLQADTIIFQFPLFWYSFPALMKKWIDDVICYGFAFGGEKGAQLKDKQFIFSFTIGGQESAYGNEKEIALTIDELLKPLKQMLRYCQVKDINYVYSHNMLYIPDMYGSIEDINVRSECHAIKLLSMVN :: failed
